# SUBJECT OF TEST: HIV Env of isolate Ce703010054_2A2 (clade C) (HIV)
# EXPERIMENTAL DETAILS: cell-based or functional assay

BINDER: PGDM1400 (antibody, V domains shown) VH: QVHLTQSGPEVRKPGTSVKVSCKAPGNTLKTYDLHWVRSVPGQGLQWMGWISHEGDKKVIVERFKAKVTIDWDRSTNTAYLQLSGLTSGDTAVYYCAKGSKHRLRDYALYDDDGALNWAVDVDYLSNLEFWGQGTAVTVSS VL: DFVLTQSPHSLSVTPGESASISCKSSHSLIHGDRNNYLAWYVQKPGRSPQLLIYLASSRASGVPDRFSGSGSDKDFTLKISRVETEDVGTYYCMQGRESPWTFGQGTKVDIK
IC50 (µg/ml) with constrains, µg/mL: 0.014
--
BINDER: ePGDM5 (antibody, V domains shown) VH: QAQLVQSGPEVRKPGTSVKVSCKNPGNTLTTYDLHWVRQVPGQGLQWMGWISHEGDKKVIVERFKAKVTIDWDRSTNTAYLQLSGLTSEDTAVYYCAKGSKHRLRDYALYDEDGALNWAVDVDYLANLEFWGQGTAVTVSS VL: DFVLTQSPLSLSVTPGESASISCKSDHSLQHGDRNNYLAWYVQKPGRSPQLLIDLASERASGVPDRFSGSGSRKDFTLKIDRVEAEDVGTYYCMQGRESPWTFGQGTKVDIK
IC50 (µg/ml) with constrains, µg/mL: 0.008
--
BINDER: ePGDM13 (antibody, V domains shown) VH: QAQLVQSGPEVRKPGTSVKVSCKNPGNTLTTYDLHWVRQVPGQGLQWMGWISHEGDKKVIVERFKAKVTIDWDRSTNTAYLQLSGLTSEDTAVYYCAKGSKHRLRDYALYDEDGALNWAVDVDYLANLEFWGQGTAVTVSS VL: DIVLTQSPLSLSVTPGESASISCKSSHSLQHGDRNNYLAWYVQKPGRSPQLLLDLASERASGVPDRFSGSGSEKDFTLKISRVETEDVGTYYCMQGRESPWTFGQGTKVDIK
IC50 (µg/ml) with constrains, µg/mL: 0.008
--
BINDER: ePGDM9 (antibody, V domains shown) VH: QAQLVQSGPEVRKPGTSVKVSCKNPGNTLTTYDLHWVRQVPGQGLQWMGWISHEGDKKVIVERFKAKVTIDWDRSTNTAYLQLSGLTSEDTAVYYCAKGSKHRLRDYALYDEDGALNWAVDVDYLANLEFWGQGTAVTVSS VL: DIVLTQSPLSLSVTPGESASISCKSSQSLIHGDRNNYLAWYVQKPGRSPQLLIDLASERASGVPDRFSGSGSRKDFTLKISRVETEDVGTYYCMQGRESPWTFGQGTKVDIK
IC50 (µg/ml) with constrains, µg/mL: 0.008
